// provenance: patent US20230286973A1

- System: IL-2-FL/Gaussia Luciferase
- assay-name: Dox Induced IL2-FL-Gluc Assay
- Format: cell-based
- measurement-conditions: ratio of IL2FLGluc IC50 to PD1ssGluc IC50
- Description: Flp-In 293 T-REx™ cells were transfected with pcDNA™5/FRT/TO plasmid inserted with cDNA encoding Gaussia Luciferase fused to the 3′ end of cDNA encoding full length IL-2 (amino acids 1-153). Transfected cells were selected for resistance to the selectable markers Hygromycin and Blasticidin to create a stable cell line that contained the IL-2-FL/Gaussia Luciferase cDNA insert whose expression was regulated under the T-REx™ system. […]
reported-property: 24 hr Dox Inducible IL2FLGluc 293FRT/TO: IL2/PD1

{"smiles-repr": "CCn1cnc(/C=C/c2csc(NC(=O)c3cccn3Cc3ccncc3)n2)c1", "censoring-operator": ">", "data-value": 210}
{"smiles-repr": "CC(=O)N1CCC(Oc2ccc(N3CCC[C@@H]3c3csc(NC(=O)c4cccn4Cc4ccnc(F)c4)n3)cn2)CC1", "censoring-operator": "=", "data-value": 2.4}
{"smiles-repr": "N#CCn1cnc(/C=C/c2csc(NC(=O)c3cccn3Cc3ccnc(F)c3)n2)c1", "censoring-operator": ">", "data-value": 110}
{"smiles-repr": "O=C(Nc1nc([C@H]2CCCN2c2ccc(O[C@H]3CCOC3)cc2)cs1)c1cccn1Cc1ccncc1", "censoring-operator": "=", "data-value": 1.6}
{"smiles-repr": "N#Cc1cc(C(=O)Nc2nc([C@H]3CCCN3c3ccccc3)cs2)n(Cc2ccnc(F)c2)c1", "censoring-operator": "=", "data-value": 2.2}
{"smiles-repr": "Cc1cc(C(=O)Nc2nc([C@H]3CCCN3c3ccc(OC4CCN(C(N)=O)CC4)cc3)cs2)n(Cc2ccnc(F)c2)c1", "censoring-operator": "=", "data-value": 2.1}
{"smiles-repr": "O=C(Nc1nc(/C=C/c2cn3ccccc3n2)cs1)c1cccn1Cc1ccncc1", "censoring-operator": ">", "data-value": 74}
{"smiles-repr": "CN(C)c1cccc(-c2csc(NC(=O)c3cccn3Cc3ccncc3)n2)c1", "censoring-operator": "=", "data-value": 5.2}
{"smiles-repr": "O=C(Nc1nc([C@H]2CCCN2c2ccc(CO)cc2)cs1)c1cccn1Cc1ccncc1", "censoring-operator": "=", "data-value": 2.5}

----------
- assay-name: Liver Microsome Stability Assay (monkey)
- measurement-conditions: monkey liver microsomes, with NADPH, 1.0 uM compound
reported-property: Liver Microsome Stability (Multiple Species): Monkey - % Remaining after 30 min w/NADPH

{"compound": "O=C(Nc1nc(/C=C/c2c[nH]cn2)cs1)c1cccn1Cc1ccncc1", "data-value": "11.3%"}
{"compound": "Cc1ccc(S(=O)(=O)N(C(=O)c2cccn2Cc2ccncc2)c2nc([C@H]3CCCN3S(=O)(=O)c3ccc(C)cc3)cs2)cc1", "data-value": "0.32%"}
{"compound": "O=C(Nc1nc([C@H]2CCCN2c2ccccc2)cs1)c1cccn1CC1CCOC1 (stereo partly shown)", "data-value": "2.02%"}
{"compound": "O=C(Nc1nc([C@H]2CCCN2c2ccccc2)cs1)c1cccn1Cc1cccnc1", "data-value": "0.62%"}
{"compound": "O=C(Nc1nc([C@H]2CCCN2c2ccccc2)cs1)c1ccc[nH]1", "data-value": "7.34%"}
{"compound": "CN(C)C(=O)N1CCC(Oc2ccc(N3CCC[C@@H]3c3csc(NC(=O)c4cccn4Cc4ccnc(F)c4)n3)cc2)CC1", "data-value": "2.57%"}
{"compound": "CC(=O)N1CCC(O[C@@H]2C[C@H](c3csc(NC(=O)c4cccn4Cc4ccncc4)n3)N(c3ccccc3)C2)CC1", "data-value": "0.1%"}
{"compound": "O=C(Nc1nc(CCc2ccc(OC(F)(F)F)cn2)cs1)c1cccn1Cc1ccncc1", "data-value": "0.23%"}
{"compound": "CC(=O)N1CCC(C)(Oc2ccc(N3CCC[C@@H]3c3csc(NC(=O)c4cccn4Cc4ccnc(F)c4)n3)cc2)CC1", "data-value": "0.4%"}
{"compound": "O=C(Nc1nc(/C=C/[C@@H]2CCCCN2)cs1)c1cccn1Cc1ccncc1", "data-value": "0.27%"}
{"compound": "O=C(O)CCCCn1cccc1C(=O)Nc1nc([C@H]2CCCN2c2ccccc2)cs1", "data-value": "76.1%"}
{"compound": "CC(C)c1cc(/C=C/c2csc(NC(=O)c3cccn3Cc3ccnc(F)c3)n2)nn1C", "data-value": "0.19%"}
{"compound": "O=C(Nc1nc(CCc2coc(-c3ccccc3)n2)cs1)c1cccn1Cc1ccncc1", "data-value": "0.19%"}
{"compound": "O=C(Nc1nc([C@H]2CCCN2c2cccnn2)cs1)c1cccn1Cc1ccncc1", "data-value": "0.39%"}
{"compound": "O=C(Nc1nc(-c2cccc(-c3ccccn3)c2)cs1)c1cccn1Cc1ccnc(F)c1", "data-value": "0.25%"}
{"compound": "CC(=O)NCc1ccc(N2CCC[C@@H]2c2csc(NC(=O)c3cccn3Cc3ccncc3)n2)cc1", "data-value": "0.1%"}
{"compound": "CCc1ccc(N2CCC[C@@H]2c2csc(NC(=O)c3cccn3CC3CCOCC3)n2)cc1", "data-value": "22.2%"}
{"compound": "N#Cc1cnccc1Cn1cccc1C(=O)Nc1nc([C@H]2CCCN2c2ccccc2)cs1", "data-value": "0.56%"}
{"compound": "O=C(Nc1nc([C@H]2CCCN2c2ccc(O[C@H]3CCOC3)cc2)cs1)c1cccn1Cc1ccncc1", "data-value": "0.36%"}

----------
- assay-name: Liver Microsome Stability Assay (human)
- measurement-conditions: human liver microsomes, with NADPH, 1.0 uM compound
Outcome: 1 for Liver Microsome Stability (Multiple Species): Human - % Remaining after 30 min w/NADPH of at least 3%; 0 for anything lower.

{"compound": "O=C(Nc1nc([C@@H]2CCCN2c2ccc(C(F)(F)F)cc2)cs1)c1cccn1Cc1ccnc(F)c1 [Compound A142]", "class": 1}
{"compound": "Cc1ccnc(N2CCC[C@@H]2c2csc(NC(=O)c3cccn3Cc3ccncc3)n2)c1 [Compound E63]", "class": 0}
{"compound": "Cc1cc(C(=O)Nc2nc([C@H]3CCCN3c3ccc(NC(=O)N(C)C)cc3)cs2)n(Cc2ccnc(F)c2)c1 [Compound A163]", "class": 1}
{"compound": "CN(C)C(=O)N1CC(Oc2ccc(N3CCC[C@@H]3c3csc(NC(=O)c4cccn4Cc4ccnc(F)c4)n3)cc2)C1 [Compound A131]", "class": 1}
{"compound": "N#CCC1(Cn2cccc2C(=O)Nc2nc([C@H]3CCCN3c3ccccc3)cs2)COC1 [Compound C19]", "class": 1}
{"compound": "CC(=O)N1CCC(C(C)c2ccc(N3CCC[C@@H]3c3csc(NC(=O)c4cccn4Cc4ccnc(F)c4)n3)cc2)CC1 (stereo partly drawn) [Compound A161]", "class": 0}
{"compound": "O=C(Nc1nc(/C=C/C2CN(S(=O)(=O)c3ccccc3)CCO2)cs1)c1cccn1Cc1ccncc1 (stereo not drawn) [Compound B9]", "class": 0}
{"compound": "CCn1cnc(/C=C/c2csc(NC(=O)c3cccn3Cc3ccnc(F)c3)n2)c1C [Compound B117]", "class": 0}

----------
Each entry below carries its recorded Liver Microsome Stability (Multiple Species): Human - % Remaining after 30 min w/NADPH.
- assay-name: Liver Microsome Stability Assay (human)
- measurement-conditions: human liver microsomes, with NADPH, 1.0 uM compound
reported-property: Liver Microsome Stability (Multiple Species): Human - % Remaining after 30 min w/NADPH (%)

{"compound": "O=C(Nc1nc([C@H]2CCCN2c2ccc(F)cc2)cs1)c1cccn1Cc1ccncc1 [Compound A25]", "data-value": 3.01}
{"compound": "Cc1ccc(N2CCC[C@@H]2c2csc(NC(=O)c3cccn3Cc3ccncc3)n2)nc1 [Compound E62]", "data-value": 0.69}
{"compound": "N#CC[C@@H](O)Cn1cccc1C(=O)Nc1nc([C@H]2CCCN2c2ccccc2)cs1 [Compound C112]", "data-value": 23.6}
{"compound": "CC(C)c1ccc(/C=C/c2csc(NC(=O)c3cccn3Cc3cccnc3)n2)nc1 [Compound B66]", "data-value": 0.09}
{"compound": "CC(C)Oc1ccc(N2CCC[C@@H]2c2csc(NC(=O)c3cccn3Cc3ccncc3)n2)cc1 [Compound A5]", "data-value": 10.4}

----------
Each entry below carries its recorded 24 hr Dox Inducible IL2FLGluc 293FRT/TO: IL2/PD1.
- Test system: IL-2-FL/Gaussia Luciferase
- assay-name: Dox Induced IL2-FL-Gluc Assay
- Type: cell-based
- measurement-conditions: ratio of IL2FLGluc IC50 to PD1ssGluc IC50
reported-property: 24 hr Dox Inducible IL2FLGluc 293FRT/TO: IL2/PD1

{"compound": "CC(C)n1cc(/C=C/c2csc(NC(=O)c3cccn3Cc3ccnc(F)c3)n2)nc1CO", "censoring-operator": ">", "data-value": 2.5}
{"compound": "Cc1cc(C(=O)Nc2nc(/C=C/c3cn(C(C)C)cn3)cs2)n(Cc2ccnc(F)c2)c1", "censoring-operator": ">", "data-value": 28}
{"compound": "CC(=O)NCc1ccc(N2CCC[C@@H]2c2csc(NC(=O)c3cccn3Cc3ccncc3)n2)cc1", "censoring-operator": "=", "data-value": 3.4}
{"compound": "NC(=O)N1CCC(Oc2ccc(N3CCC[C@@H]3c3csc(NC(=O)c4cccn4Cc4ccnc(F)c4)n3)nc2)CC1", "censoring-operator": "=", "data-value": 3}
{"compound": "CCOC(=O)Nc1ccc(N2CCC[C@@H]2c2csc(NC(=O)c3cccn3Cc3ccnc(F)c3)n2)cc1", "censoring-operator": "=", "data-value": 3.6}
{"compound": "O=C(Nc1nc([C@H]2CCCN2c2ccc(-c3ncco3)cc2)cs1)c1cccn1Cc1ccncc1", "censoring-operator": "=", "data-value": 2.4}
{"compound": "CC1CCn2cnc(/C=C/c3csc(NC(=O)c4cccn4Cc4ccnc(F)c4)n3)c2C1 (stereo not shown)", "censoring-operator": "=", "data-value": 31}
{"compound": "CS(=O)(=O)N1CC(Oc2ccc(N3CCC[C@@H]3c3csc(NC(=O)c4cccn4Cc4ccnc(F)c4)n3)cc2)C1", "censoring-operator": "=", "data-value": 1.8}
{"compound": "CC(C)c1ccc(/C=C/c2csc(NC(=O)c3cccn3Cc3ccnc(F)c3)n2)nc1", "censoring-operator": "=", "data-value": 84}
{"compound": "O=C(Nc1ccc(N2CCC[C@@H]2c2csc(NC(=O)c3cccn3Cc3ccnc(F)c3)n2)cc1)OC1CNC1", "censoring-operator": "=", "data-value": 4.5}
{"compound": "Cn1ccnc1/C=C/c1csc(NC(=O)c2cccn2Cc2ccncc2)n1", "censoring-operator": ">", "data-value": 4.6}
{"compound": "CC(=O)Nc1ccc(N2CCC[C@@H]2c2csc(NC(=O)c3cccn3Cc3cc(F)nc(F)c3)n2)cc1", "censoring-operator": "=", "data-value": 2}
{"compound": "O=C(Nc1nc(/C=C/c2cn3c(n2)CCC3)cs1)c1cccn1Cc1ccncc1", "censoring-operator": ">", "data-value": 84}
{"compound": "CC(C)n1cnc(-c2ccccc2-c2csc(NC(=O)c3cccn3Cc3ccnc(F)c3)n2)c1", "censoring-operator": "=", "data-value": 2.2}
{"compound": "CC(C)c1cc(/C=C/c2csc(NC(=O)c3cccn3Cc3ccnc(F)c3)n2)n(C)n1", "censoring-operator": ">", "data-value": 24}
{"compound": "CC(=O)N1CCC(Oc2ccc(N3CCC[C@@H]3c3csc(NC(=O)c4cccn4Cc4ccnc(F)c4)n3)c(F)c2)CC1", "censoring-operator": "=", "data-value": 1.5}
